Test system: CAKI-1 renal
assay-overview: NCI tumour cell line growth inhibition, 48 h
result-type: GI50

Would you please look over these solved cases?
Please fill in: GI50 reported for NS(=O)(=O)OC[C@@H]1C[C@@H](n2ccc3c(NC4CCc5ccccc54)ncnc32)C[C@@H]1O (some centres undefined) = 0.52 µM

Please fill in: GI50 reported for "Nc1c(C(=O)c2cccc(CCS(N)(=O)=O)c2)cnn1-c1ccc(F)cc1" = > 25 µM

Please fill in: GI50 reported for "FC(F)(F)c1cccc(Nc2nc(-c3ccccc3)nc3ncccc23)c1" = 3.86 µM

Attention now turns to another entry.
Please fill in: GI50 reported for "Cc1cc(-c2nc(C(=O)Nc3cc4oc(N5CCOCC5)nc4nc3N3CC[C@@H](O)C3)co2)ccn1" = 17.1 µM
